FXR Efficacy (%) (1 µM) values, listed per item
experimental target: FXR (Homo sapiens, UniProt Q96RI1)
Construct: host or cells: CHO cells
Sequence (Q96RI1 whole entry): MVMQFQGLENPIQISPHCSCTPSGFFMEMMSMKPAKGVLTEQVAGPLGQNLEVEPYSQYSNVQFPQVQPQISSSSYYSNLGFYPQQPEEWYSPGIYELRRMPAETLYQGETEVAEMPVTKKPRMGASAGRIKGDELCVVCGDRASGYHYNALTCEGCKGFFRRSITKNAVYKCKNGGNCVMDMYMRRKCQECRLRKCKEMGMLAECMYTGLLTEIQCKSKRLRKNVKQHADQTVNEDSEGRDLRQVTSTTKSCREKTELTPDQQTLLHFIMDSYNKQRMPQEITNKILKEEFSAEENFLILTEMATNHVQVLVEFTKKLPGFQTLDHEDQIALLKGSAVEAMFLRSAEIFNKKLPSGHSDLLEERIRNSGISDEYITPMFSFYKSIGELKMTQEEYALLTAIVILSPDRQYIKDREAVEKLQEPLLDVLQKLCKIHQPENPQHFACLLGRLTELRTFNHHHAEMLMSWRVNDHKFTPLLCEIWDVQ
test description: CHO cell-based FXR luciferase reporter assay (Indigo Biosciences)
particulars: 1 µM; % vs OCA 1 µM as 100%
measured property: FXR Efficacy (%) (1 µM)

• Cc1cnccc1C(=O)N(Cc1ccc(-c2ccc(N(C)C)cc2)cc1)c1cc(Cl)cc(Cl)c1 [Compound 13j] = 62.1
• CN(C)c1ccc(-c2ccc(CN(C(=O)c3ccc(O)cc3Cl)c3cc(Cl)cc(Cl)c3)cc2)cc1 [Compound 13af] = 108.2
• CN(C)c1ccc(-c2ccc(CN(C(=O)c3ccncc3C3CC3)c3cc(Cl)cc(Cl)c3)cc2)cc1 [Compound 13w] = 22.7
• Cc1cnccc1C(=O)N(Cc1ccc(-c2ccc(N(C)C)cc2)cc1)c1cc(Cl)cc(N2CCC2)c1 [Compound 13n] = 20.2
• COC(=O)/C=C/c1cc(Cl)cc(N(Cc2ccc(-c3ccc(N(C)C)cc3)cc2)C(=O)c2ccncc2C)c1 [Compound 13m] = 72.5
• Cc1cnccc1C(=O)N(Cc1ccc(-c2ccc(N(C)C)cc2)cc1)c1cc(Cl)cc(Cl)c1C [Compound 13r] = 8.6
• COc1ccc(C23CCC(CN(C(=O)c4ccncc4C)c4cc(Cl)cc(Cl)c4)(CC2)CC3)cc1C [Compound 20f] = 90.3
• CCc1cnccc1C(=O)N(Cc1ccc(-c2ccc(N(C)C)cc2)cc1)c1cc(Cl)cc(Cl)c1 [Compound 13v] = 21.3

Data provenance is paper PMC8080777.
